EXPERIMENTAL DETAILS: Passive permeability and efflux ratio (Caco-2)
Type: in vitro ADME
CONDITIONS: human; Caco-2, 5 μM, pH 7.4, 120 minutes
READOUT NAME: Papp A→B at 120 min, 5 μM (×10⁻⁶ cm/s)

[
  {
    "MOLECULE": "CC1(c2ccc(C#N)cc2F)Oc2cccc(N3CCN(Cc4nc5ccc(C(=O)O)cc5n4CC4(C#N)CC4)C4CC43)c2O1 (centres unmarked)",
    "RESULT UNITS": "×10⁻⁶ cm/s",
    "Papp A→B at 120 min, 5 μM": 17.5
  },
  {
    "MOLECULE": "CC1(c2ccc(C#N)cc2F)Oc2cccc(C3CCN(Cc4nc5ccc(C(=O)O)cc5n4Cc4cncs4)CC3)c2O1 (centres unmarked)",
    "RESULT UNITS": "×10⁻⁶ cm/s",
    "Papp A→B at 120 min, 5 μM": 16.8
  },
  {
    "MOLECULE": "N#Cc1ccc(COc2cccc([C@@H]3CCN(Cc4nc5ccc(C(=O)O)cc5n4Cc4cncs4)[C@@H]4C[C@@H]43)n2)c(F)c1 (single isomer, unassigned)",
    "RESULT UNITS": "×10⁻⁶ cm/s",
    "Papp A→B at 120 min, 5 μM": 27.9
  },
  {
    "MOLECULE": "N#Cc1ccc(COc2cccc(N3CCN(Cc4nc5ccc(C(=O)O)cc5n4Cc4cncs4)[C@@H]4C[C@@H]43)n2)c(F)c1 (single isomer, unassigned)",
    "RESULT UNITS": "×10⁻⁶ cm/s",
    "Papp A→B at 120 min, 5 μM": 15
  },
  {
    "MOLECULE": "CC1(c2ccc(C#N)cc2F)Oc2cccc(N3CCN(Cc4nc5ccc(C(=O)O)cc5n4Cc4cncs4)C4CC43)c2O1 (centres unmarked)",
    "RESULT UNITS": "×10⁻⁶ cm/s",
    "Papp A→B at 120 min, 5 μM": 19.9
  }
]

Where do these numbers come from? They come from patent US12410163B2.
